test system: U-251; experiment: NCI tumour cell line growth inhibition, 48 h
Calls of active or inactive are those of the source. Cut-off read from the data, not from the text of the source: active = GI50 up to about 1.1 µM and inactive = higher.
In this section, each of the molecules is paired with its reported GI50.

Solved cases (3 shown):
CCN1CCC(O)(/C=C/c2ccc(OC)cc2)C(C(=O)/C=C/c2ccc(OC)cc2)C1 (centres undefined)    6.34 µM (inactive)
COc1nncc2[nH]c(-c3ccccc3)cc12    49 µM (inactive)
O=C(CN(c1ccc(S(=O)(=O)O)cc1)c1ccc(S(=O)(=O)O)cc1)Nn1cnc2ccc(S(=O)(=O)N(c3ccc(S(=O)(=O)O)cc3)c3ccc(S(=O)(=O)O)cc3)cc2c1=O    > 100 µM (inactive)

Task: # return recorded GI50 for entry `COc1ccc2nc3cc([N+](=O)[O-])ccc3c(NNc3ccc(Cl)cc3)c2c1`
Result: 21.7 µM (inactive)

Task: # return recorded GI50 for entry `Cn1cnc2c(sc3nc4ccccc4n32)c1=N`
Result: > 100 µM (inactive)

Task: # return recorded GI50 for entry COC(=O)C(/C(=N/NC(=O)c1ccncc1)C(=O)Nc1ccccc1OC)c1nc2ccc(Cl)cc2nc1O (centres undefined)
Result: > 100 µM (inactive)
